- test-system: Metabotropic glutamate receptor 1 (Homo sapiens)
- Sequence (Q13255 whole entry): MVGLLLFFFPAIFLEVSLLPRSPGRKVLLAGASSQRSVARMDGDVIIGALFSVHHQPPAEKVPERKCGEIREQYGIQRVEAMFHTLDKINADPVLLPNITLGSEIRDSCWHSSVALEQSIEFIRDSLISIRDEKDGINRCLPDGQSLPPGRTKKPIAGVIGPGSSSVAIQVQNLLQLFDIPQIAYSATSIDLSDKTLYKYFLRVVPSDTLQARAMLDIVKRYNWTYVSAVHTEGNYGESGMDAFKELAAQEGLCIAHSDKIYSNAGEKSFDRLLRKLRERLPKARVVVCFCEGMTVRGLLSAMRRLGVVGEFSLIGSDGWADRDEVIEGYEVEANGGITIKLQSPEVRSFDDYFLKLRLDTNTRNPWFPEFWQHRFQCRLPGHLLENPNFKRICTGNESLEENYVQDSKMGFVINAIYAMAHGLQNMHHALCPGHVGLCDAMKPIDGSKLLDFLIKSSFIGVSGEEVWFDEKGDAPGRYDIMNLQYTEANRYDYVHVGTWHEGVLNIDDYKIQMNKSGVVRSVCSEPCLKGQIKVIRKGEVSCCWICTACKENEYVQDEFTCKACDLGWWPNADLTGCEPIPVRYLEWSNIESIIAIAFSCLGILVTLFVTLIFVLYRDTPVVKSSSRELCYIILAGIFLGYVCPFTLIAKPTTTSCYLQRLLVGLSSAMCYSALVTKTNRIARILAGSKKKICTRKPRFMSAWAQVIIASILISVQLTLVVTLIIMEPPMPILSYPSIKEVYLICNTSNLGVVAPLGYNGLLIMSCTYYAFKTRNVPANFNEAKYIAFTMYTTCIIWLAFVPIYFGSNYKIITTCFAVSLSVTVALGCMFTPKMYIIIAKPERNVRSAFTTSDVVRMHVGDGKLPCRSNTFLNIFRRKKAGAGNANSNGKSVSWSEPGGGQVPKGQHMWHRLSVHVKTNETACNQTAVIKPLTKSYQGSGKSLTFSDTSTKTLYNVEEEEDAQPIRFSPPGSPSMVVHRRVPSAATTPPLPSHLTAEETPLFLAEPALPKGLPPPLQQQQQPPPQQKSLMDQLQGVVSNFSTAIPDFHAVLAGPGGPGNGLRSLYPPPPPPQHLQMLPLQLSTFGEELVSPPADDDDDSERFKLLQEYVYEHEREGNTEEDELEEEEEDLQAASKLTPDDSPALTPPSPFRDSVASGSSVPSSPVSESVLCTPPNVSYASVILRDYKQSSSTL
- assay-procedure: Antagonist activity at human mGluR1
outcome-measure: IC50 (µM)

Known results for compounds:
> print(dat)
                                   compound  observed.value
1  C#CCN(C)c1ccnc2sc3c(=O)n(-c4ccc(Cl)cc4)cnc3c12          0.0038
2  C=CCN(C)c1ccnc2sc3c(=O)n(-c4ccc(Cl)cc4)cnc3c12          0.0011
3  C#CCNc1ccnc2sc3c(=O)n(-c4ccc(C)cc4)cnc3c12          0.0015

1: C#CCNc1ncnc2sc3c(=O)n(-c4ccc(OC)cc4F)cnc3c12
2: C=C(C)CNc1ccnc2sc3c(=O)n(-c4ccc(Cl)cc4)cnc3c12
3: C#CC(C)Nc1ccnc2sc3c(=O)n(-c4ccc(C)cc4)cnc3c12 (centres undefined)
4: C#CCNc1ncnc2sc3c(=O)n(-c4ccc5scnc5c4)cnc3c12
5: C#CCN(C)c1ccnc2sc3c(=O)n(-c4ccc(Br)cc4)cnc3c12
**Q:** Arrange the 5 entries by IC50 so the values rise. Write out the labels following the order that was asked for.
**A:** 5, 2, 4, 1, 3

A: C=C(C)CNc1ncnc2sc3c(=O)n(-c4ccc(OC)cc4)cnc3c12
B: C=C(C)CNc1ncnc2sc3c(=O)n(-c4cccc(Cl)c4)cnc3c12
C: C#CC(C)(C)Nc1ccnc2sc3c(=O)n(-c4ccc(C)cc4)cnc3c12
**Q:** Arrange the 3 entries by IC50 so the values rise. Write out the labels following the order that was asked for.
**A:** A, B, C
(A: 0.0096 µM, B: 0.053 µM, C: 0.171 µM)

---

- test-system: UniProt P23385
- Sequence (P23385 whole entry): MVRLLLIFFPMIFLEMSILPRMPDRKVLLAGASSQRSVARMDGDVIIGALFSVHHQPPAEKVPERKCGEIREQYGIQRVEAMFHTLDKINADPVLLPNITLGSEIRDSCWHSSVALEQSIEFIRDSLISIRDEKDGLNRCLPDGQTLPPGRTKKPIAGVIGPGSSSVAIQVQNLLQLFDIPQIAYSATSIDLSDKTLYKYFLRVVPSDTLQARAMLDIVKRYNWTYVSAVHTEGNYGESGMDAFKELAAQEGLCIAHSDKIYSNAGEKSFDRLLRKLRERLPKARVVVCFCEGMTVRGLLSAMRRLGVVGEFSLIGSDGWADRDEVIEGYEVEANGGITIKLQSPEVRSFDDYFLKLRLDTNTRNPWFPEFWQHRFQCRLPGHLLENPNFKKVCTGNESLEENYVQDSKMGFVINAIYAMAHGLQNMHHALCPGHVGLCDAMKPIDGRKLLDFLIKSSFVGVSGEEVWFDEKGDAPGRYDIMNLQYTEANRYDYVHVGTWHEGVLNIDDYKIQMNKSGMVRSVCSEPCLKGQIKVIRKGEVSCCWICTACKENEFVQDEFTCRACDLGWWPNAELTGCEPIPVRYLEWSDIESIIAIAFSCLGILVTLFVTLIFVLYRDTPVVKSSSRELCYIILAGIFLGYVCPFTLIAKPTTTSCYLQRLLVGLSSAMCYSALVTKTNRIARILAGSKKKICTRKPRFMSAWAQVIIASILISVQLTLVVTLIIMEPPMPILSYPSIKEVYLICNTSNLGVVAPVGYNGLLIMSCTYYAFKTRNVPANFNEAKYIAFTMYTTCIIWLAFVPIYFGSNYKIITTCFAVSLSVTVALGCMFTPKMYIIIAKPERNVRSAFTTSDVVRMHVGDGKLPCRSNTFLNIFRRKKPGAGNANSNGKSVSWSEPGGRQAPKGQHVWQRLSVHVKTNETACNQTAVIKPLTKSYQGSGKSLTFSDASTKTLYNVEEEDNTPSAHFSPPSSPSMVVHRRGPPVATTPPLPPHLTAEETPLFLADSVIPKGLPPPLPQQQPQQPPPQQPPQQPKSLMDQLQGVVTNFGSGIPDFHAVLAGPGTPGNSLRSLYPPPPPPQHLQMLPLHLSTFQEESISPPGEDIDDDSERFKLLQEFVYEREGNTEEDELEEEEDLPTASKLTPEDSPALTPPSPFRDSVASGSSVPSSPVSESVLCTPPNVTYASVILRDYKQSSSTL
- assay-procedure: Antagonist activity at rat mGluR1
- Type: functional
outcome-measure: Ki (nM)

> print(dat)
                               entry.smiles     test.system  observed.value
1  C=C(C)CNc1ccnc2sc3c(=O)n(-c4ccc(OC)cc4)cnc3c12  UniProt P23385             0.4
2  C=CCNc1ccnc2sc3c(=O)n(-c4ccc(F)c(OC)c4)cnc3c12  UniProt P23385              14
3  C#CCNc1ncnc2sc3c(=O)n(-c4ccc5sccc5c4)cnc3c12  UniProt P23385              69
4  C=C(C)CNc1ncnc2sc3c(=O)n(-c4ccc(Br)cc4)cnc3c12  UniProt P23385             3.8
5  C=C(C)CNc1ncnc2sc3c(=O)n(-c4ccc(F)cc4)cnc3c12  UniProt P23385              38
6  C=CCN(C)c1ccnc2sc3c(=O)n(-c4ccc(Cl)cc4)cnc3c12  UniProt P23385             5.4
7  C#CCNc1ncnc2sc3c(=O)n(-c4ccc(Br)cc4)cnc3c12  UniProt P23385              29
8  C=C(C)CNc1ccnc2sc3c(=O)n(-c4ccc(OC)c(F)c4)cnc3c12  UniProt P23385              13

P: C=C(C)CNc1ncnc2sc3c(=O)n(-c4ccc5c(c4)OCCO5)cnc3c12
Q: C#CCNc1ncnc2sc3c(=O)n(-c4ccc(F)cc4)cnc3c12
R: C#CCNc1ccnc2sc3c(=O)n(-c4ccc(C)cc4)cnc3c12
**Q:** Arrange the 3 entries by Ki so the values rise. Write out the labels following the order that was asked for.
**A:** R, Q, P
(R: 1.6 nM, Q: 39 nM, P: 64 nM)

A: C=C(C)CNc1ncnc2sc3c(=O)n(-c4ccc5ncsc5c4)cnc3c12
B: C=C(C)CNc1ncnc2sc3c(=O)n(-c4ccc5sccc5c4)cnc3c12
C: C=C(C)CNc1ccnc2sc3c(=O)n(-c4ccc5c(c4)OCO5)cnc3c12
D: C#CCNc1ncnc2sc3c(=O)n(-c4ccc(OC)c(F)c4)cnc3c12
**Q:** Arrange the 4 entries by Ki so the values rise. Write out the labels following the order that was asked for.
**A:** B, C, A, D
